Literature Ki values, system: Vasopressin V1b receptor (Homo sapiens).

>>> assay_result("CCOc1ncccc1C1(NC(=O)N2CCN(C3CCN(C)CC3)CC2)C(=O)N(S(=O)(=O)c2ccc(OC)cc2OC)c2ccc(Cl)cc21 (single isomer, unassigned; (+))")
"< 1 nM"
>>> assay_result("CC(C)NC(=O)Cn1c(-c2cccc(Cl)c2)nc2ccc([C@H]3C[C@@H](CN4CC5(COC5)C4)C3)cc2c1=O")
"1 to 10 nM"
>>> assay_result("CCNCc1ccc(C2(N3CCC[C@H]3c3ncco3)C(=O)N(S(=O)(=O)c3ccc(OC)cc3)c3ccc(Cl)cc32)c(OC)c1 (stereo partly drawn)")
"10 to 100 nM"
>>> assay_result("CCOc1ncccc1C1(NCc2ccc(N3CCN(C)CC3)cc2)C(=O)N(S(=O)(=O)c2ccccc2)c2ccc(C#N)cc21 (stereo not drawn)")
"10 to 100 nM"
>>> assay_result("COc1ccc(S(=O)(=O)N2C(=O)C(c3cc(CN(C)C)ccc3OC)(N3C[C@H](F)C[C@H]3c3ncco3)c3cc(C#N)ccc32)cc1 (stereo partly drawn)")
"10 to 100 nM"

Next compound, please.
[in] // Ki lookup, key: COc1ccc(S(=O)(=O)N2C(=O)C(c3cc(CN4CCN(C(C)=O)CC4)ccc3OC)(N3CCC[C@H]3c3ncco3)c3cc(Cl)ccc32)cc1 (stereo partly drawn)
[out] 10 to 100 nM

---

Endpoint summary: Ki, system: Vasopressin V1b receptor (Homo sapiens, UniProt P47901), multiple sources combined.

Look over these answered cases.
>>> assay_result("CCOc1ccccc1C1(N2CCN(c3ccncc3)CC2)C(=O)N(S(=O)(=O)c2ccc(C)cc2F)c2ccc(C#N)cc21 (stereo not shown)")
"50 to 500 nM"
>>> assay_result("CCOc1ncccc1C1(NC(=O)N2CCN(C3CCN(CC)CC3)CC2)C(=O)N(S(=O)(=O)c2ccc(OC)cc2OC)c2cc(F)c(F)cc21 (stereo not shown)")
"1 to 10 nM"
>>> assay_result("CCCNCc1ccc(OC)c(C2(N3CCC[C@H]3c3ncco3)C(=O)N(S(=O)(=O)c3ccc(OC)cc3)c3ccc(Cl)cc32)c1 (stereo partly shown)")
"< 10 nM"
>>> assay_result("CCOc1ccc(OC)cc1C1(N2CCN(c3ccnc(C)c3)CC2)C(=O)N(S(=O)(=O)c2ccc(OC)cc2OC)c2ccc(C#N)cc21 (single isomer, unassigned; (+))")
"< 50 nM"
>>> assay_result("CCOc1ccc(OC)cc1C1(NCCNc2ccncc2)C(=O)N(S(=O)(=O)c2ccc(OC)cc2OC)c2ccc(C#N)cc21 (stereo not shown)")
"< 50 nM"

Now turn to the next molecule.
[in] Return reported Ki; argument: CCOc1ncccc1C1(N2CC3(CN(C4CCN(C)CC4)C3)C2)C(=O)N(S(=O)(=O)c2ccc(OC)cc2)c2ccc(C#N)cc21 (racemic)
[out] 10 to 100 nM

---

Several publications report Ki on UniProt P47901; those values are gathered here.

>>> assay_result("CCOc1ncccc1C1(NC(=O)c2ccc(N3CCN(C)CC3)cc2)C(=O)N(S(=O)(=O)c2ccc(OC)cc2)c2ccc(C#N)cc21 (stereo not drawn)")
"1 to 10 nM"

[in] Consider the compound shown here: COc1ccc(S(=O)(=O)N2C(=O)C(c3cc(CN4CCN(C)CC4)ccc3OC)(N3CCC[C@H]3c3ncon3)c3cc(Cl)ccc32)cc1 (stereo partly drawn) What is its recorded Ki?
[out] < 10 nM

[in] Field request: Ki | item: "CCOc1ncccc1[C@]1(NC(=O)N2CC(N3CCC(N4CC5(COC5)C4)CC3)C2)C(=O)N(S(=O)(=O)c2ccc(OC)cc2OC)c2ccc(C#N)cc21"
[out] < 1 nM

[in] Please report the recorded Ki for CCOc1ncccc1C1(NC(=O)N2CCN(C3CCN(CC)CC3)CC2)C(=O)N(S(=O)(=O)c2ccc(OC)cc2OC)c2cc(F)c(Cl)cc21 (stereo not drawn) .
[out] < 1 nM

[in] What Ki value was documented for this compound, COc1ccc(S(=O)(=O)N2C(=O)C(c3cc(CN4CCN(C)CC4)ccc3OC)(N3CCCC3c3ccccn3)c3cc(Cl)ccc32)cc1 (stereo not drawn) ?
[out] 10 to 100 nM

[in] Quick one: Ki for COc1cccc(C(C(=O)N2CCN(C3CCN(C)CC3)CC2)n2c(=O)n(S(=O)(=O)c3ccc(C#N)cc3)c3ccc(Cl)cc32)c1 (stereo not drawn) ?
[out] 100 to 500 nM
